Numbers sourced from paper PMC11862924.

- system name: YTHDF2 (residues 383–553) (Homo sapiens, UniProt Q9Y5A9)
- Construct: A YTHDF2 YTH domain construct (residues 383–553) was subcloned to a pOPIN plasmid; made in house; host or cells: Escherichia coli BL21(DE3)
- Sequence (Q9Y5A9 383-553): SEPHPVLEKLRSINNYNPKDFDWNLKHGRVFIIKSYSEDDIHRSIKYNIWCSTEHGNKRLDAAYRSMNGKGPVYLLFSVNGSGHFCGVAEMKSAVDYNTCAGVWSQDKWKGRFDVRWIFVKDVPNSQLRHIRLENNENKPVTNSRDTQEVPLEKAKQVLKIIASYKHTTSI
- test summary: Fluorescence polarization (FP) assay, YTHDF2–m6A RNA interaction
- Type: binding
- assay context: 100 μM compound; YTHDF2 (residues 383–553, 20 nM), FAM-labeled m6A RNA probe 5 nM; average ± SD

sample smiles	system name	inhibition at 100 µM
O=C(O)c1ccc(-n2cc(C(=O)c3cc(Cl)cc(Cl)c3O)cn2)cc1	YTHDF2 (residues 383–553) (Homo sapiens, UniProt Q9Y5A9)	> 70%
COC(=O)c1ccc(-n2cc(/C=C(\C#N)C(N)=O)cn2)cc1	YTHDF2 (residues 383–553) (Homo sapiens, UniProt Q9Y5A9)	< 30%
Cc1cc(O)c(C(=O)c2cnn(-c3ccc(C(=O)O)cc3)c2)cc1Cl	YTHDF2 (residues 383–553) (Homo sapiens, UniProt Q9Y5A9)	> 70%
